Assignment: determine reported cAMP released with respect to control, 1 nM peptide, UMR-106 cells for the given binders.
- Study system: T1, rat PTH-1R (rat PTHR endogenously expressed on UMR-106 rat osteosarcoma cells) (rat, UniProt P25961 27-591)
- T1 sequence (looked up): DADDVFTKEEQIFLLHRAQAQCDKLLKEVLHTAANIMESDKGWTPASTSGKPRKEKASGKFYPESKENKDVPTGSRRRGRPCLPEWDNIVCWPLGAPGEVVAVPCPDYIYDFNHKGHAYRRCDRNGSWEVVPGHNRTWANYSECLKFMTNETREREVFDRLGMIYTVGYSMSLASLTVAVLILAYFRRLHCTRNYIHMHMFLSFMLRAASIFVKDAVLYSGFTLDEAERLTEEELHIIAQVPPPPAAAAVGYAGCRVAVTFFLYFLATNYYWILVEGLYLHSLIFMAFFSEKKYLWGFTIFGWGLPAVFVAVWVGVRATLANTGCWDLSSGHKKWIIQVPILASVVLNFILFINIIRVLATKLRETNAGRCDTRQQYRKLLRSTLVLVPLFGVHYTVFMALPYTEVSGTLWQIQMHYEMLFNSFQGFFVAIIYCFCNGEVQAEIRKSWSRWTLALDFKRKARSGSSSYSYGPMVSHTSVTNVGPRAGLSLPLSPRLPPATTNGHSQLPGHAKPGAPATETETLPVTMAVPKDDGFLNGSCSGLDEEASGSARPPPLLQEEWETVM
- Test description: cell-based or functional assay
Where no end group is shown, it is not given here. [ ]: non-standard residue; d: D form. Bip(2'-Et-4'-OMe) = CCc1cc(OC)ccc1-c1ccc(C[C@H](N)C(=O)O)cc1; αMePhe(2,6-F2) = C[C@](N)(Cc1c(F)cccc1F)C(=O)O; αMePhe(2-F) = C[C@](N)(Cc1ccccc1F)C(=O)O; hhPhe = N[C@@H](CCCc1ccccc1)C(=O)O; hArg = N=C(N)NCCCC[C@H](N)C(=O)O; αMeF = C[C@](N)(Cc1ccccc1)C(=O)O; Nle = CCCC[C@H](N)C(=O)O; Orn = NCCC[C@H](N)C(=O)O; Ac5c = NC1(C(=O)O)CCCC1; Aib = CC(C)(N)C(=O)O

In: Query: cAMP released with respect to control, 1 nM peptide, UMR-106 cells; subject: [Ac5c]V[Aib]EIQ[αMePhe(2,6-F2)][Nle]HQ[Orn][Aib][αMePhe(2,6-F2)][Bip(2'-Et-4'-OMe)][hhPhe] [Seq. ID. 841]
Out: 32 percent of control

In: Query: cAMP released with respect to control, 1 nM peptide, UMR-106 cells; subject: [Aib]V[Ac5c]EIQ[αMePhe(2-F)][Nle]HQ[hArg]AK[αMeF] [Seq. ID. 30]
Out: 19 percent of control

In: Query: cAMP released with respect to control, 1 nM peptide, UMR-106 cells; subject: [Aib]V[Aib]EIQ[αMePhe(2,6-F2)][Nle]HQ[Orn]A[αMePhe(2,6-F2)][αMePhe(2,6-F2)] [Seq. ID. 325]
Out: 38 percent of control

All figures here come from patent US8383581B2.
